# Tested on: MS2 coat protein
# protocol: apparent KD of MS2 coat protein; designed switch direction (-1 OFF switch, 1 ON switch): 1; higher = weaker reporter binding
# measurement context: input ligand: FMN 200 uM
readout: apparent KD of MS2 coat protein (µM)
Record the value in µM, omitting the unit from your answer.

# input // returns reported apparent KD of MS2 coat protein for input GUAAUCGUUAUAGGAUAUCAUGAGGAUUACCCAUGAGAAGGGUGAUUCCGAUCCAUAUUCAGAAAAUGAAUGUGGAUAGAUUGC [Omei NG1 A v1] (Eterna round: R96, puzzle: Same State NG 1)
# output 0.123

# input // returns reported apparent KD of MS2 coat protein for input GGAAAGAGGUAAGGAUAUGCAUGGCUGGGACAUGAGGAUCACCCAUGUUAUAGAAGAAAUCUAGGGUAGAAGGUACAAGGAAGG [AK SSNG2-V2-9.1] (Eterna round: R96, puzzle: Same State NG 2)
# output 0.464

# input // returns reported apparent KD of MS2 coat protein for input GCUAGAAAUAAAGCCAACAUGAGGAUCACCCAUGUAUGUUGGCAGGAUAUCGUAUGCAAAGCAUACGAGAAGGGCCAAACUAGC [Mat - Same State NG 3 - JL Mod - D3] (Eterna round: R96, puzzle: Same State NG 3)
# output 0.0373

# input // returns reported apparent KD of MS2 coat protein for input GGAAACAGAGGAGGAUAUGCAGAGGAUCACCCUGUAGAAGGCCUCGAAAGGAGGAUAUGCAGAGGAUCACCCUGUAGAAGGCCU [pwkr ssNG DX.26] (Eterna round: R96, puzzle: Same State NG 1)
# output 0.0721

* * *

I'd appreciate it if you could supply apparent KD of MS2 coat protein values for the items below.
# Test system: MS2 coat protein
# protocol: apparent KD of MS2 coat protein; designed switch direction (-1 OFF switch, 1 ON switch): -1; higher = weaker reporter binding
# measurement context: input ligand: FMN 200 uM
Record the value in nM, omitting the unit from your answer.

# input // returns reported apparent KD of MS2 coat protein for input UAGAGACAUGAGGAUCACCCAUGUCAGGAUAUCUGCUUAGACAGGUUCACGGUCUAGUAGAGAAGGGACUGGAG [Eternabot (L2) Solution 42] (Eterna round: R97, puzzle: Exclusion 1)
# output 121

# input // returns reported apparent KD of MS2 coat protein for input UUCACAUGGACAUAAGAUCACAUGAGGAUCACCCAUGUGAAUAACAAGCUUUUUGCUCGUCUUAUGUCCAAUAAUAG [Stov1/14-A2] (Eterna round: R97, puzzle: Sensor, turn-off variant 1)
# output 15.8

# input // returns reported apparent KD of MS2 coat protein for input GCAGCUAACACAGAUAUGUGCACAUGAGGAUCACCCAUGUCACAGGAUAUGGACUGGAUUACAGUCCAGAAGGGUGAAUGCUGC [Zipper Style 6] (Eterna round: R96, puzzle: Exclusion NG 3)
# output 10.2

# input // returns reported apparent KD of MS2 coat protein for input AAGGUGGCAGGAUAUACAUGAGGAUCACCCAUGUGAACGUAAGGAGACUCUCUCAAAGGUAGAAGGGUCGGUUC [Eternabot (L2) Solution 1] (Eterna round: R97, puzzle: Exclusion 3)
# output 56.3

# input // returns reported apparent KD of MS2 coat protein for input CAGCUGAAAGUGAGGAUAUCUAGAGCUUCGGCUCUAGAGAAGGCACAUGAGGAUCACCCAUGUGAUCACAGCUG [BmEx4/7-A1] (Eterna round: R97, puzzle: Brourd's mod of Exclusion 4)
# output 633

# input // returns reported apparent KD of MS2 coat protein for input GUGUGGCCUGUAGGAUAUGGUUCCGUUUCGGUUCCAGAAGGACACGAGGAUACAUGAGGAUCACCCAUGUGCUCGUCACUGUGC [salish99_ExNG1_r04_404] (Eterna round: R96, puzzle: Exclusion NG 1)
# output 13.2

# input // returns reported apparent KD of MS2 coat protein for input GUGCCGCGAGGAUAUACAGACGGGUCCAUUACGUGUCUCGGACUUGAGGAUCACCCAAGUAGAAGGCGUCUCGG [salish99_ex2_r4_627] (Eterna round: R97, puzzle: Exclusion 2)
# output 26

# input // returns reported apparent KD of MS2 coat protein for input UGUUGUUACGCAGGAUAUUGCCAACAGGCAGUAGGAUAUCCGAAAGGAGAAGGACCGCCAACAGGCGAGAAGGGCGGGUUAACA [pwkr exNG2 2xF7 2xFMN.10] (Eterna round: R96, puzzle: Exclusion NG 2)
# output 370

# input // returns reported apparent KD of MS2 coat protein for input AAGAAACAUGAGGAUCACCCAUGUGAGGAUAUGAGCACGCCGGUGACGGUGAUAAGAAUCAGAAGGCACAAAGG [JL-ex1-4.34 salish99 mod] (Eterna round: R97, puzzle: Exclusion 1)
# output 93

* * *

# System: MS2 coat protein
# protocol: apparent KD of MS2 coat protein; designed switch direction (-1 OFF switch, 1 ON switch): 1; higher = weaker reporter binding
# measurement context: Eterna round: R95; input ligand: FMN 200 uM
Criterion: apparent KD of MS2 coat protein meeting or surpassing 30 nM. Met: rule met. Not met: rule not met.

# input // inclusive: apparent KD of MS2 coat protein at least 30 nM? input: CUCAAAACAAGUUGCAGUGUUCGUCUUUAACAUGAGGAUCACCCAUGUAAUAGCCCAGUAGAAGCGCUCGGGCCACC [Ceedbeen] (puzzle: Sensor for hsa-mir-208a)
# output rule met

# input // inclusive: apparent KD of MS2 coat protein at least 30 nM? input: AAUUAUUAACAUGAGGAUCACCCAUGUAUAAGGGAGAAUAUUAUUAUUAUUAUUAACAAGCUUUUUGCUUGUCUCAU [Ribo-boogie] (puzzle: Sensor for hsa-mir-208a version 2)
# output rule met

# input // inclusive: apparent KD of MS2 coat protein at least 30 nM? input: UUUAGUUGCGGGCAGGAUAUGUAUUAAAAUACAUGAGGAUCACCCAUGUGAGAUCAUAAAGAUCUACAGAAGGGCCAAUCGCGAC [Laonerce - 18] (puzzle: Same State 2)
# output rule not met

# input // inclusive: apparent KD of MS2 coat protein at least 30 nM? input: AGUCCUGAAUAAAUUAAACAGAGACAUGUACAUGAGGAUCACCCAUGUCAUGUGCAAGUUUUAUGCUCGUCAUAUAA [Sensorship 18 - Jieux - Sensor for hsa-mir-208a] (puzzle: Sensor for hsa-mir-208a)
# output rule not met

# input // inclusive: apparent KD of MS2 coat protein at least 30 nM? input: UACCAACAUAUAGAACAAGCGUGCUCGUCACAUGAGGAUCACCCAUGUCUAAGCGCUGAACCUGCAUCCUCAGCGCC [Oniste] (puzzle: Sensor for hsa-mir-208a)
# output rule met

* * *

# Tested on: MS2 coat protein
# protocol: apparent KD of MS2 coat protein; designed switch direction (-1 OFF switch, 1 ON switch): -1; higher = weaker reporter binding
# measurement context: input ligand: none
readout: apparent KD of MS2 coat protein (nM)
Record the value in nM, omitting the unit from your answer.

# input // returns reported apparent KD of MS2 coat protein for input AAGUAGUGUGUGAGGAUAUUGGUGGAAUGACAUAUUAAGAAGGCACAUGAGGAUCACCCAUGUGGGUUGACACG [Brourd's EX4 #19] (Eterna round: R97, puzzle: Brourd's mod of Exclusion 4)
# output 98.4

# input // returns reported apparent KD of MS2 coat protein for input UACAUGAGGAUCACCCAUGUUUUGUCGUGUAUGGUACCCGUCUAGGAUAUCGUGUUAUUGGACCACGAGAAGGAGAGUAUCAAU [Excl-NG3-LRO02] (Eterna round: R96, puzzle: Exclusion NG 3)
# output 31.7

# input // returns reported apparent KD of MS2 coat protein for input AGAUCUAGGACAGGAUAUAUGGAUGUCUUCAUCGAAGAUGAAGACAUCACAUGAGGAUCACCCAUGUAGAAGGGUCCUAGAUCA [Omei Exc(NG) 2Av2] (Eterna round: R96, puzzle: Exclusion NG 2)
# output 15.6

# input // returns reported apparent KD of MS2 coat protein for input GGAUAUAACGUAGGAUAUGAGAGAAACAGACGAUCAGAAGGACGACAUGAGGAUCACCCAUGUGAUCUAUCAAUAUUAUACAUG [Prohibition 97 - Jieux - Exclusion NG 1] (Eterna round: R96, puzzle: Exclusion NG 1)
# output 300

# input // returns reported apparent KD of MS2 coat protein for input CAGUACAGAGGAUAUACAUGAGGAUCACCCAUGUGUUUCAGCAUCGAAAGAUGCGAAUGUAGAAGGCUGUACUG [jl-ex3-4.26 salish99 mod] (Eterna round: R97, puzzle: Exclusion 3)
# output 26.5

# input // returns reported apparent KD of MS2 coat protein for input AGUACUAACUCGAAAGUGUUAGUACAAUAAGCUUGUGAAACAUGAGGAUCACCCAUGUCCUCAUAAGCUCGUCUUAU [salish99_TOv2_r3_022] (Eterna round: R96, puzzle: Sensor v3, turn-off variant 2)
# output 18

# input // returns reported apparent KD of MS2 coat protein for input AUAUUGUGAGGAUAUGAACUUAGUAUCGAAAGAUACAAAGUUCAGAAGGCACAUGAGGAUCACCCAUGUUUCUC [Long static hairpin v7] (Eterna round: R97, puzzle: Exclusion 4)
# output 76.1

# input // returns reported apparent KD of MS2 coat protein for input AAACCUUGAGGAUAUACAUAACAACAAAGCCUCACGUGCCAACAUGAGGAUCACCCAUGUAGAAGGCAGGCCAA [Mod R3 Insanara 11 - Jieux - Exclusion 2] (Eterna round: R97, puzzle: Exclusion 2)
# output 12.7

# input // returns reported apparent KD of MS2 coat protein for input UGCUGACGAGGAUAUACAUGAGGAUCACCCAUGUUGGUCAAGCGACGAUAGUCGCAAUGUAGAAGGCGUCAGCA [E3/8-A2] (Eterna round: R97, puzzle: Exclusion 3)
# output 405

# input // returns reported apparent KD of MS2 coat protein for input ACAUGUCAUCGAGGAUAUUGUACACAUGAGGAUCACCCAUGUACUCGGUUGCUCUAGCAUGCGUUCGAGAAGGCGAUGUACAUU [Ex NG2 #98] (Eterna round: R96, puzzle: Exclusion NG 2)
# output 144

# input // returns reported apparent KD of MS2 coat protein for input AUUCAACAUGAGGAUCACCCAUGUGAGGAUAUGCGAGAAUAGACUUCGGUCAGAUAGAGCAGAAGGCGCAGAUA [EX1 #5] (Eterna round: R97, puzzle: Exclusion 1)
# output 29.1

# input // returns reported apparent KD of MS2 coat protein for input CUGUACUGAGGAUAUACAUGAGGAUCACCCAUGUUCCAAGGCUAGGAAACUAGCAAAGGUAGAAGGCAGUACAG [Mat - Exclusion 3 - Eli Mod - D67] (Eterna round: R97, puzzle: Exclusion 3)
# output 17.8

# input // returns reported apparent KD of MS2 coat protein for input CGAUGAGGAGUGAGGAUAUCGUGUUCGAAAGAACGUGAGAAGGCACAUGAGGAUCACCCAUGUGAUUCUUAUCG [Omei Ex4B A19] (Eterna round: R97, puzzle: Brourd's mod of Exclusion 4)
# output 25.5

# input // returns reported apparent KD of MS2 coat protein for input CAGUACAGAGGAUAUACAUGAGGAUCACCCAUGUGUUUCAGCUAGGAAACUAGCGAAUGUAGAAGGCUGUACUG [jl-ex3-4.24 salish99 mod] (Eterna round: R97, puzzle: Exclusion 3)
# output 38.3

# input // returns reported apparent KD of MS2 coat protein for input UCAAUUAUGACAGGAUAUAGUUUUUGUUUUUCUCUAGAAGGGUCUAUGCACAUGAGGAUCACCCAUGUUCUUUUUAUUUGCAUU [JR_ExcNG1_Sub016] (Eterna round: R96, puzzle: Exclusion NG 1)
# output 70.9

# input // returns reported apparent KD of MS2 coat protein for input CUUAUGUGAGGAUAUGCCUGGCCGUGAGGCCAAAUUGAUUAGCAGAAGGCACAUGAGGAUCACCCAUGUGCGGG [jl-ex4-4.67 ViennaUCT mod] (Eterna round: R97, puzzle: Exclusion 4)
# output 479

# input // returns reported apparent KD of MS2 coat protein for input AUUGUUUGAUACCUCUAAUACAUGAGGAUCACCCAUGUUAUCGAGGAUAUGCAUUAGAGUGGUUAGCAGAAGGCGAAGUAAUUG [JR_ExcNG3_Sub030] (Eterna round: R96, puzzle: Exclusion NG 3)
# output 17.1

# input // returns reported apparent KD of MS2 coat protein for input AGCUGUGGCCGAGGAUAUACACAUGAGGAUCACCCAUGUAGGUGCGGAUACUCGCACCAAUAAGUGUAGAAGGCGGUCUCAGCA [Eli eng2 - 057] (Eterna round: R96, puzzle: Exclusion NG 2)
# output 19.2

meta.source: the supplement of paper PMC9170038
